TEST_DESCRIPTION: Cytotoxicity against human HeLa cells assessed as reduction in cell viability after 72 hrs by celltiter glo assay
Assay type: cell-based
Record form. Attribute: CC50 at 72 h. Fill in for each entry.

Consider the reported CC50 at 72 h for these compounds:
>  <COMPOUND>
COc1ccc2[nH]c(C)c(CC(=O)N3CCN(CCCC(C)O)CC3c3ncc(-c4ccc5ccccc5c4)[nH]3)c2c1 (stereo not drawn)

>  <CC50 at 72 h>
13.1 µM

$$$$
>  <COMPOUND>
CCC(=O)CCCN1CCN(C(=O)Cc2ccccc2)C(c2ncc(-c3ccc4ccccc4c3)[nH]2)C1 (stereo not drawn)

>  <CC50 at 72 h>
> 25 µM

$$$$
>  <COMPOUND>
CCC(=O)CCCN1CCN(C(=O)Cc2c[nH]c3ccccc23)C(c2ncc(-c3ccc4ccccc4c3)[nH]2)C1 (stereo not drawn)

>  <CC50 at 72 h>
> 25 µM

$$$$
>  <COMPOUND>
COc1ccc2[nH]c(C)c(CC(=O)N3CCN(CCCC(=O)O)CC3c3ncc(-c4ccc5ccccc5c4)[nH]3)c2c1 (stereo not drawn)

>  <CC50 at 72 h>
> 50 µM

$$$$
>  <COMPOUND>
COC(=O)CCCN1CCN(C(=O)Cc2c(C)[nH]c3ccc(OC)cc23)C(c2ncc(-c3ccc4ccccc4c3)[nH]2)C1 (stereo not drawn)

>  <CC50 at 72 h>
28.8 µM

$$$$

Take each entry in turn and give its CC50 at 72 h.
1. CCC(=O)CCCN1CCN(C(=O)Cc2c[nH]c3ncccc23)C(c2ncc(-c3ccc4ccccc4c3)[nH]2)C1 (stereo not drawn)
2. CCCCCCN1CCN(C(=O)Cc2c(C)[nH]c3ccc(OC)cc23)C(c2ncc(-c3ccc4ccccc4c3)[nH]2)C1 (stereo not drawn)

Out:
> 25 µM
> 25 µM

In: Query: CC50 at 72 h; subject: CNC(=O)CCCN1CCN(C(=O)Cc2c(C)[nH]c3ccc(OC)cc23)C(c2ncc(-c3ccc4ccccc4c3)[nH]2)C1 (stereo not drawn)
Out: > 5 µM

---

Test system: Trypanosoma brucei
TEST_DESCRIPTION: Antitrypanosomal activity against Trypanosoma brucei Lister 427 bloodstream forms in presence of 10% FBS after 24 hrs by celltiter glo assay
Assay type: functional, organism-based
CONDITION_PARAMETERS: Lister 427, 24 h
Record form. Attribute: pEC50. Fill in for each entry.
Answers are plain numbers, as −log10 of the molar value.

>  <COMPOUND>
CCC(=O)CCCN1CCN(C(=O)Cc2c[nH]c3ccccc23)[C@@H](c2ncc(-c3ccc4ccccc4c3)[nH]2)C1

>  <SUBJECT_OF_TEST>
Trypanosoma brucei

>  <REPORTED_MEASUREMENT>
5.36

$$$$
>  <COMPOUND>
CCC(=O)CCCN1CCN(C(=O)Cc2c[nH]c3ccccc23)C(c2ncc(-c3ccc4ccccc4c3)[nH]2)C1 (centres undefined)

>  <SUBJECT_OF_TEST>
Trypanosoma brucei

>  <REPORTED_MEASUREMENT>
6.31

$$$$
>  <COMPOUND>
CCC(=O)CCCN1CCN(C(=O)Cc2c[nH]c3ccccc23)[C@H](c2ncc(-c3ccc4ccccc4c3)[nH]2)C1

>  <SUBJECT_OF_TEST>
Trypanosoma brucei

>  <REPORTED_MEASUREMENT>
6.37

$$$$

// switching to the query compound
In: Query: pEC50; subject: CCC(=O)CCCN1CCN(C(=O)Cc2c(C)[nH]c3ccc(OC)cc23)C(c2ncc(-c3ccc4ccccc4c3)o2)C1 (centres undefined)
Out: 5.90
